FYI, the data here is from PubChem BioAssay (NCI).

system: OVCAR-3 ovarian; assay: NCI tumour cell line growth inhibition, 48 h; in the data active = GI50 below about 0.43 µM; inactive = the rest
Classes used: y = active, n = inactive

- compound: "Oc1ccc(Nc2ncnc3c2sc2ncccc23)cc1"
  class label: "y"
- compound: "CC(=O)OC1COC(Oc2c(C)c3c4c(c2O)[C@@H](C)CC[C@@H]4[C@@H](C)C[C@H]3C=C(C)C)C(O)C1OC(C)=O (stereo partly specified)"
  class label: "n"
- compound: "CCN(CC)CCC(CNc1ccnc2cc(Cl)ccc12)c1ccc(Cl)cc1 (stereo unspecified)"
  class label: "n"
- compound: "CC1=C(C(=O)Nc2ccc(F)c(Cl)c2)C(c2ccccc2O)NC(=S)N1 (stereo unspecified)"
  class label: "n"
- compound: "CNCc1ccccc1-c1csc([C@@H](C)Nc2nc(C)nc3cc(OC)c(OC)cc23)c1"
  class label: "n"
- compound: "CCN1CCN(C(=O)[C@@]2(C)CC[C@]3(C)CC[C@]4(C)C(=CC(=O)[C@@H]5[C@@]6(C)CC[C@H](OC7C[C@@H](O)[C@@H](O)C(C)O7)C(C)(C)[C@@H]6CC[C@]54C)[C@@H]3C2)CC1 (stereo partly specified)"
  class label: "n"
- compound: "COc1ccc(Sc2[nH]c(C(C)=O)c3ccccc23)cc1"
  class label: "n"
- compound: "Cn1c(I)c(C#CCO[Si](C)(C)C(C)(C)C)c(=O)[nH]c1=O"
  class label: "n"
- compound: "CCCCC#CC1=C(Br)C(=O)OC1"
  class label: "n"
- compound: "CCCCOC(=O)CNC(=O)OC/C=C/C#CC#C/C=C/COC(=O)NCC(=O)OCCCC"
  class label: "n"
- compound: "COc1cccc(F)c1C(=O)c1cnc(NC2CCN(S(C)(=O)=O)CC2)nc1N"
  class label: "n"

* * *

Let's look at some compounds and their measured TGI.
system: HOP-92 NSCLC; test: NCI tumour cell line growth inhibition, 48 h
quantity name: TGI (µM)

- compound: "CCOC(=O)CCC(NC(=O)Cc1ccc(Nc2nc3cc(F)c(F)cc3nc2C(=O)OCC)cc1)C(=O)OCC (stereo unspecified)"
  quantity name: "TGI"
  value prefix: "="
  numeric value: 82.1
- compound: "Cc1ccc(/C=N/Nc2cc(C)c3cccc(C)c3n2)s1"
  quantity name: "TGI"
  value prefix: "="
  numeric value: 59.4
- compound: "Nc1nc(Cl)cc(NCCCCCCCCNc2cc(Cl)nc(N)n2)n1"
  quantity name: "TGI"
  value prefix: "="
  numeric value: 85.4
- compound: "COc1cc(OCc2cccc(-c3ccc(C(O)c4nccs4)cc3)c2C)cc(OC)c1C=O (stereo unspecified)"
  quantity name: "TGI"
  value prefix: "="
  numeric value: 8.52
- compound: "N#Cc1c(NC(=O)NCc2ccccc2)sc2c1CCCCC2"
  quantity name: "TGI"
  value prefix: "="
  numeric value: 20.9
- compound: "Cc1ccnc2[nH]c(-c3ccc4ccccc4c3)cc(=O)c12"
  quantity name: "TGI"
  value prefix: "="
  numeric value: 4.78
- compound: "CO/N=C(\\C(=O)OC(=NC1CCCCC1)NC1CCCCC1)c1csc(NC(c2ccccc2)(c2ccccc2)c2ccccc2)n1"
  quantity name: "TGI"
  value prefix: ">"
  numeric value: 10
- compound: "O=S(=O)(O)CCCc1cccc2ccccc12"
  quantity name: "TGI"
  value prefix: ">"
  numeric value: 100
- compound: "O=[N+]([O-])c1cccc(C2=NN(c3ccccc3)C[N+](c3ccc(Br)cc3)=N2)c1"
  quantity name: "TGI"
  value prefix: ">"
  numeric value: 100
- compound: "CC1=C(C(=O)Nc2ccc(F)c(Cl)c2)C(c2ccccc2O)NC(=S)N1 (stereo unspecified)"
  quantity name: "TGI"
  value prefix: ">"
  numeric value: 50
- compound: "C=CCn1c(N)c(C#N)c(C#N)c1-c1ccccc1"
  quantity name: "TGI"
  value prefix: ">"
  numeric value: 100
